Tested on: K. pneumoniae OXA-48
condition info: Table S3; […] MH at pH 8.5
Where a SMILES comes first, the peptide text is derived from it. [ ]: non-standard residue; d: D form. Nleu = CC(C)CNCC(=O)O; Nlys = NCCCCNCC(=O)O

molecule: CC(C)C[C@H](NC(=O)[C@H](CC(C)C)NC(=O)[C@H](CC(C)C)NC(=O)[C@H](CCCCN)NC(=O)[C@H](CC(C)C)NC(=O)[C@H](CC(C)C)NC(=O)CN(CCCCN)C(=O)CN(CC(C)C)C(=O)CN(CC(C)C)C(=O)CN(CCCCN)C(=O)CNCCCCN)C(N)=O [EB5, kkllkLLKLLL] (H-[Nlys][Nlys][Nleu][Nleu][Nlys]LLKLLL-NH2)
MIC K. pneumoniae OXA-48: 8 µg/mL
